- Test system: CP269
- Assay Text: qHTS profiling for inhibitors of Plasmodium falciparum proliferation (AID 504749); note: nearly all actives have a fitted effect of over 60% in size
- Applied Conditions: P. falciparum in erythrocytes, SYBR Green DNA, 72 h; series mostly up to 28.7 µM
Results filed as inconclusive are left out. Calls of active or inactive are those of the source. Calls come from the whole dose curve; as a rule, active = well fitted inhibition curve with a large enough effect; inconclusive = small, poorly fitted or top-dose-only effect; inactive = flat fitted curve, though single readings scatter.
Endpoint Label: outcome

>  <Compound>
CCOC(=O)OC(C)OC1=C(C(=O)Nc2ccccn2)N(C)S(=O)(=O)c2ccccc21 (stereo not drawn)

>  <Endpoint Label>
outcome

>  <Assay Value>
inactive

$$$$
>  <Compound>
C[C@@H]1C(=O)NC2=Nc3cccc(Cl)c3CN21

>  <Endpoint Label>
outcome

>  <Assay Value>
inactive

$$$$
>  <Compound>
N[C@H](Cc1c[nH]c2ccccc12)C(=O)O

>  <Endpoint Label>
outcome

>  <Assay Value>
inactive

$$$$

---

- System: Es-2
- Assay Text: Primary qHTS to identify gynecologic anti-cancer compounds using libraries of approved drugs and bioactive compounds (AID 1345084); note: nearly all actives have a fitted effect of over 55% in size
- Applied Conditions: Gynecologic cancer cell panel viability, ATPlite luminescence, 48 h; series mostly up to 57.5 µM
Results filed as inconclusive are left out. Calls of active or inactive are those of the source. Calls come from the whole dose curve; as a rule, active = well fitted cell-killing curve with a large enough effect; inconclusive = small, poorly fitted or top-dose-only effect, or effect the other way; inactive = flat fitted curve, though single readings scatter.
Give your call using only these classes: Yes (active), No (inactive)

Take a look at these entries with their results.
>  <Molecule>
COc1cccc(OC)c1C(=O)N[C@@H]1C(=O)N2[C@@H]1SC(C)(C)[C@@H]2C(=O)O

>  <Target Or Test System>
Es-2

>  <Label Class>
No

$$$$
>  <Molecule>
CN(C)CCCOc1nn(Cc2ccccc2)c2ccccc12

>  <Target Or Test System>
Es-2

>  <Label Class>
No

$$$$

### Prompt Identify the outcome logged in this assay for the molecule shown: NCCC(O)(P(=O)(O)O)P(=O)(O)O
### Response No

### Prompt // outcome(item) with item = C[C@@H]1C[C@H]2[C@@H]3C[C@H](F)C4=CC(=O)C(Cl)=C[C@]4(C)[C@@]3(F)[C@@H](O)C[C@]2(C)[C@@]1(O)C(=O)CO
### Response No

---

- Assay Text: qHTS of pediatric cancer cell lines to identify multiple opportunities for drug repurposing: Primary screen for A673 cells (AID 1347092); note: nearly all actives have a fitted effect of over 45% in size
- Applied Conditions: A673 Ewing sarcoma viability, CellTiter-Glo ATP luminescence, 48 h; series mostly up to 46 µM
Records with an inconclusive call do not appear. Active and inactive are the calls of the source. The call rests on the fitted dose curve; in most records, active means well fitted cell-killing curve with a large enough effect; inconclusive means small, poorly fitted or top-dose-only effect; inactive means no such curve, though single readings can be large or run the other way.
# valid calls are active, inactive; nothing else

Solved entries:
>  <Compound>
CCCN1CCCC[C@H]1C(=O)Nc1c(C)cccc1C

>  <Label Class>
inactive

$$$$
>  <Compound>
CCCCOc1ccc(OCCCN2CCOCC2)cc1

>  <Label Class>
inactive

$$$$

### Prompt Identify the outcome logged in this assay for the compound shown: CCCC(=O)O[C@]1(C(=O)CO)CC[C@H]2[C@@H]3CCC4=CC(=O)CC[C@]4(C)[C@H]3[C@@H](O)C[C@@]21C
### Response inactive

### Prompt Name the outcome recorded for Cc1cc(O)c(C(C)C)cc1Cl in the assay.
### Response inactive

### Prompt # outcome recorded in this test, key = c1ccc(CNCCNCc2ccccc2)cc1
### Response inactive

### Prompt What did the test return for C[C@H]1[C@H](NC(=O)/C(=N/OC(C)(C)C(=O)O)c2csc(N)n2)C(=O)N1S(=O)(=O)O (stereo in doubt) ?
### Response inactive

### Prompt Field: outcome | Entry: CC(=O)OCC(=O)[C@@]1(OC(C)=O)[C@@H](C)C[C@H]2[C@@H]3C[C@H](F)C4=CC(=O)C=C[C@]4(C)[C@@]3(F)[C@@H](O)C[C@@]21C
### Response inactive
